Items are presented alongside their recorded kr (bimolecular rate constant), rates of inhibition by carbamylating agents.
- Tested on: D. japonica cholinesterase (DjChE)
- ASSAY_METHOD_TEXT: Kinetics of irreversible
- Type: biochemical, Dugesia japonica
- CONDITION_NOTES: 1 mM ATCh; room temperature; mean± 95% confidence intervals
ASSAY_READOUT: kr (bimolecular rate constant), rates of inhibition by carbamylating agents

{"COMPOUND": "CN(C)C(=O)Oc1cccc([N+](C)(C)C)c1 [Neostigmine, neostigmine]", "SYSTEM_TESTED": "D. japonica cholinesterase (DjChE)", "EXPERIMENTAL_RESULT": "1.3±0.2 × 10^5 M^−1 min^−1"}
{"COMPOUND": "CN(C)C(=O)Oc1ccc[n+](C)c1 [Pyridostigmine, pyridostigmine]", "SYSTEM_TESTED": "D. japonica cholinesterase (DjChE)", "EXPERIMENTAL_RESULT": "0.10± 0.01 × 10^5 M^−1 min^−1"}
{"COMPOUND": "CNC(=O)Oc1ccc2c(c1)[C@]1(C)CCN(C)[C@@H]1N2C [Physostigmine, physostigmine]", "SYSTEM_TESTED": "D. japonica cholinesterase (DjChE)", "EXPERIMENTAL_RESULT": "0.32± 0.02 × 10^5 M^−1 min^−1"}
{"COMPOUND": "CNC(=O)Oc1cccc2ccccc12 [Carbaryl, carbaryl]", "SYSTEM_TESTED": "D. japonica cholinesterase (DjChE)", "EXPERIMENTAL_RESULT": "0.00064± 0.00008 × 10^5 M^−1 min^−1"}
